Kindly supply the reported EC50 values for the records listed here.
Test target: D3 receptor (Homo sapiens (Human))
Sequence (P35462 whole entry): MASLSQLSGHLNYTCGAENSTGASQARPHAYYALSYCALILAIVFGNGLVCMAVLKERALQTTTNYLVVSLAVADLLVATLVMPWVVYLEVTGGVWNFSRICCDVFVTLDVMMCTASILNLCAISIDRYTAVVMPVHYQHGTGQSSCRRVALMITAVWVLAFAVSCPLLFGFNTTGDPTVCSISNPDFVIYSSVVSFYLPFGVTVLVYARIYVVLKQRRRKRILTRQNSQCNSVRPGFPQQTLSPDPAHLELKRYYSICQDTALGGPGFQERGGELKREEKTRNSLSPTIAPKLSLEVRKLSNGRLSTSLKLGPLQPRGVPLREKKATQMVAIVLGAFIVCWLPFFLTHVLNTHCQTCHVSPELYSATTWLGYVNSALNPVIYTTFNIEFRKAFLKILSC
Assay text: Effect on cAMP content in cells stably expressing D3 receptors (CHO-D3)
Cond: forskolin stimulated, activation
Give bare numbers, in nM.

- O=C(N[C@H]1CC[C@H](CCN2CCN(c3cccc4sccc34)CC2)CC1)C1(O)CC1 [Example 42]: 1.1

Next item in the queue.
Input O=C(N[C@H]1CC[C@H](CCN2CCN(c3cccc4sccc34)CC2)CC1)c1ncco1 [Example 43] , output reported EC50.
0.1

* * *

Test target: 5-HT2A receptor (Homo sapiens (Human))
Sequence (P28223 whole entry): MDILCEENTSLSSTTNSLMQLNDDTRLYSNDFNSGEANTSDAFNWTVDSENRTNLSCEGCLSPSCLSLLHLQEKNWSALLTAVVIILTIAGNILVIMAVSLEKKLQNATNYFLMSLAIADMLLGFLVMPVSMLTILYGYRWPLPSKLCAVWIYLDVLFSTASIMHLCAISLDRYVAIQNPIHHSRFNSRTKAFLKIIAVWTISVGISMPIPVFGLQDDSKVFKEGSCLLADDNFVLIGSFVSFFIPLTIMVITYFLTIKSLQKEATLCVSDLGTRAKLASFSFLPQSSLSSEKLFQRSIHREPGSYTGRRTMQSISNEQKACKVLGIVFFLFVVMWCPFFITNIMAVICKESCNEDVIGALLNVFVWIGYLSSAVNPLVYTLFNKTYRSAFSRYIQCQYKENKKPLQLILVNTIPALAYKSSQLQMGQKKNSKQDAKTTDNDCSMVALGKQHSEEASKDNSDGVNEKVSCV
Assay text: Effect on calcium ion mobility in cells stably expressing 5-HT2A receptors (Flp-In-CHO-5HT2A, FLIPR)
Type: cell-based
Cond: Flp-In-CHO-5HT2A cells, 5HT as agonist
Endpoint name: IC50 (nM)
One number for each entry, in nM.

• O=C(N[C@H]1CC[C@H](CCN2CCN(c3cccc4sccc34)CC2)CC1)C1(O)CC1 = 3.42

Output IC50 of O=C(N[C@H]1CC[C@](F)(CCN2CCN(c3cccc4sccc34)CC2)CC1)c1ccco1
3.16
